assayRemarks: Half life in Sprague-Dawley rat at 1 to 2 mg/kg, iv and po
Format: ADME, organism-based
Parameters: dose 1-2 mg/kg, route oral
conditionsUsed: in vivo
attributeMeasured: half-life (h)
Please state the figure in h; there is no need to write the unit.

Give its half-life value. Item: Cn1cc(C(=O)Nc2ccc(-c3ccccc3)c(C(F)(F)F)c2)c(=O)c2cnc(CO)cc21
13

###

assayRemarks: AUC (0 to infinity) in Sprague-Dawley rat at 100 mg/kg, po
Format: ADME, organism-based
Parameters: time infinity, dose 100 mg/kg, route oral
conditionsUsed: plasma
attributeMeasured: AUC(0-inf) (µM·h)
Numbers only here, please. The scale is µM·h.

Please report the recorded AUC(0-inf) for Cn1cc(C(=O)Nc2ccc(-c3ccccc3)c(C(F)(F)F)c2)c(=O)c2cnc(CO)cc21 .
1630
